# Test system: Rattus norvegicus
# assayExplanation: Gastro-intestinal toxicity in rat Freund's adjuvant induced arthritis model of chronic inflammation assessed as ulcer index at equimolar oral dose relative to 10 mg/kg, po indomethacin dosed after 14 days from day of adjuvant injection until day 21 and measured on day 21
# Assay type: organism-based
# measurementSetup: in vivo, 336 h
resultType: UI
Respond using a number only.

Answered cases to consult:
O=c1nc(-c2ccccc2)c(-c2ccccc2)nn1Cc1nnc(-c2ccc(O)cc2O)o1; 10
Nc1ccc(-c2nnc(Cn3nc(-c4ccccc4)c(-c4ccccc4)nc3=O)o2)cc1; 12
O=c1nc(-c2ccccc2)c(-c2ccccc2)nn1Cc1nnc(-c2ccc(Cl)cc2)o1; 18

Req: Kindly state the measured UI obtained for `COc1ccc(-c2nnc(Cn3nc(-c4ccccc4)c(-c4ccccc4)nc3=O)o2)cc1` with Rattus norvegicus.
Resp: 11

Req: Kindly state the measured UI obtained for `O=c1nc(-c2ccccc2)c(-c2ccccc2)nn1Cc1nnc(-c2ccc([N+](=O)[O-])cc2)o1` with Rattus norvegicus.
Resp: 16
